Where do the numbers come from? From patent US10202382B2.

Here, each record is paired with measured pEC50 data.
Target: μ-opioid receptor (Homo sapiens, UniProt P35372)
Construct: expressed in transfected cells; host or cells: HEK-293
Sequence (P35372 whole entry, species assumed): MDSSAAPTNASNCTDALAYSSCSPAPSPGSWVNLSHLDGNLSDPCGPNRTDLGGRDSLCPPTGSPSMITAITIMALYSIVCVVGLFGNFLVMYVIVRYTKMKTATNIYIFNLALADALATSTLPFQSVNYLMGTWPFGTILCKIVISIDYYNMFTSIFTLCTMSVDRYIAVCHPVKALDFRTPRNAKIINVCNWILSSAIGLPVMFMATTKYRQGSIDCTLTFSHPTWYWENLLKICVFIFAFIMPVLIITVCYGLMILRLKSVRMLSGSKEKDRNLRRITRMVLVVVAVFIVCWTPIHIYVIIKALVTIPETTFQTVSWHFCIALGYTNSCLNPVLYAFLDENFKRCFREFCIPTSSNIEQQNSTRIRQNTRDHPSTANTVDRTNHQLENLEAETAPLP
Assay: μ-opioid receptor [35S]GTPγS functional assay
Assay type: biochemical
Conditions: membranes with recombinant μ opioid receptor, HEK-293 cells
pEC50: −log10 of the molar value.
Observable: pEC50

| Structure As Smiles | Numeric Value |
| --- | --- |
| CN1CC[C@]23CCN(CC4CC4)C[C@H]2[C@H]1Cc1ccc(O)cc13 | 4.85 |
| CN1CC[C@]23CCN(Cc4ccc(O)cc4)C[C@H]2[C@H]1Cc1ccc(O)cc13 | 5.80 |
| CN1CC[C@]23CC(=O)N(Cc4ccccc4)C[C@H]2[C@H]1Cc1ccc(O)cc13 | 5.56 |
| CN1CC[C@]23CCN(C)[C@H](Cc4ccc(O)cc42)[C@@H]3C1 | 5.97 |
